- MEASUREMENT NOTES: MTS cytotoxicity assay
- CONDITION PARAMETERS: human
READOUT KIND: IC50 at 72 h

- COc1cccc2c1C(=O)c1c(O)c3c(c(O)c1C2=O)CC(O)(C(=O)CO)CC3OC1CC(NC(=O)/C=C/c2cnc(C)c3c2COC(C)(C)O3)C(O)C(C)O1 (stereo not shown): > 200 µM

====

- System: HSF
- MEASUREMENT NOTES: Colony formation assay
- Assay type: cell-based
- CONDITION PARAMETERS: Homo sapiens, 72 h, incubation three days, read-out: Inhibitory concentration IC50, HSF
READOUT KIND: IC50

- COc1cccc2c1C(=O)c1c(O)c3c(c(O)c1C2=O)CC(O)(C(=O)CO)CC3OC1CC(NC(=O)/C=C/c2cnc(C)c3c2COC(C)(C)O3)C(O)C(C)O1 (stereo not shown): > 100 µM
